# Target or system: UniProt Q14397
# Sequence (Q14397 1-625): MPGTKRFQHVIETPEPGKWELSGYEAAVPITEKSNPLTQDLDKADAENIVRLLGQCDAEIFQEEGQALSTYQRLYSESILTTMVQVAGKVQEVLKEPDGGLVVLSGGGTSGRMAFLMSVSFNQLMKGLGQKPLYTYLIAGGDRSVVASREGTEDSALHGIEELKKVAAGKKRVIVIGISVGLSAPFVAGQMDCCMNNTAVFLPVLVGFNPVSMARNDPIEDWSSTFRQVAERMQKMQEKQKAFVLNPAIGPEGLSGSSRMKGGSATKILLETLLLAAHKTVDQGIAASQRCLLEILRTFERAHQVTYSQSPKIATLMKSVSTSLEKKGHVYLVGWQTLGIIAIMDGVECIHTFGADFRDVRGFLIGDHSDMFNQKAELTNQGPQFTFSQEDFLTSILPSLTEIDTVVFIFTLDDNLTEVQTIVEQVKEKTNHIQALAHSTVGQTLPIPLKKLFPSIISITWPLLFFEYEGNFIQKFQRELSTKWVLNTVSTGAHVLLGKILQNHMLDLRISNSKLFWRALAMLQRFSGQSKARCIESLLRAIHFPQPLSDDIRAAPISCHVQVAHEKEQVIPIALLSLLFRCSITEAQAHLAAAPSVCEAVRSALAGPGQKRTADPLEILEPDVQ
# Procedure details: biochemical
Give EC50 for every item shown.
State just the number; it will be interpreted in nM.

Lookup: State the recorded EC50 for this entry: Nc1ccc(S(=O)(=O)N2CCN(c3ncc(C(O)(C(F)(F)F)C(F)(F)F)cn3)C(C#CC3CC3)C2)cn1 (stereo not drawn) [Example 246]
Found: 314

Lookup: # iterate: CC(O)(c1ccc(N2CCN(S(=O)(=O)c3cccs3)C[C@@H]2CN2C(=O)NC(=O)C23CCC3)cc1)C(F)(F)F (mixture of isomers) [Example 236]
Found: 363

Lookup: # iterate: CC1(C)C(=O)NCCN1C[C@H]1CN(S(=O)(=O)c2ccc(N)nc2)CCN1c1ncc(C(O)(C(F)(F)F)C(F)(F)F)cn1 [Example 235]
Found: 13

Lookup: # iterate: O=S(=O)(c1ccccc1)c1ccc(-c2ncc(C(O)(C(F)(F)F)C(F)(F)F)cn2)cc1 [Example 263]
Found: 478

Lookup: # iterate: Cc1cc(S(=O)(=O)c2ccc(N)nc2)ccc1-c1ncc(C(O)(C(F)(F)F)C(F)(F)F)cn1 [Example 268]
Found: 232

Lookup: # iterate: Nc1ccc(S(=O)(=O)c2ccc(-c3ncc(C(O)(C(F)(F)F)C(F)(F)F)cn3)cn2)cn1 [Example 267]
Found: 113

Lookup: # iterate: CC(C)S(=O)(=O)NC[C@H]1CN(S(=O)(=O)c2cccs2)CCN1c1ccc(C(C)(O)C(F)(F)F)cc1 (mixture of isomers) [Example 237]
Found: 632

Lookup: # iterate: CCC(C)S(=O)(=O)NC[C@H]1CN(S(=O)(=O)c2cccs2)CCN1c1ccc(C(C)(O)C(F)(F)F)cc1 (stereo partly drawn) [Example 238]
Found: 270

Lookup: # iterate: CC(C)N1C(=O)N(C[C@H]2CN(S(=O)(=O)c3cccs3)CCN2c2ccc(C(C)(O)C(F)(F)F)cc2)C(C)(C)C1=O (mixture of isomers) [Example 242]
Found: 29
